Taken from patent US20260315461A1.

Listing of entries alongside the reported Dmax.
# TESTED SYSTEM: Chromatin-MDM2 (Homo sapiens)
# Construct: endogenous in cells; host or cells: IB111
# Sequence (Q00987 whole entry): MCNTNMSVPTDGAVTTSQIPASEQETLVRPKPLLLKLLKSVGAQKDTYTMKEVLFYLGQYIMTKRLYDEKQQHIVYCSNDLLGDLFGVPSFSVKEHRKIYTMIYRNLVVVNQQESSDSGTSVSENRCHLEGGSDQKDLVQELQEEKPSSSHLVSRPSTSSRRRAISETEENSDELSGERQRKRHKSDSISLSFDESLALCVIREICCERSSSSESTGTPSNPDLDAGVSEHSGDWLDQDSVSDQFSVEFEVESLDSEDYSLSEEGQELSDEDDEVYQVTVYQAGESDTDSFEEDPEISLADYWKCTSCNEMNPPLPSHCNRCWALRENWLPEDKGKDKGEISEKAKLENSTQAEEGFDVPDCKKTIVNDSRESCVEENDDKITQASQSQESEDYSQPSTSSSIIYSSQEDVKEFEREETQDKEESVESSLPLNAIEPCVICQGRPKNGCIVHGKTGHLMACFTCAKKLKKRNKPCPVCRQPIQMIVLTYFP
# ASSAY REMARKS: MDM2 degradation by western blot and immunofluorescence, chromatin-bound MDM2 (IB111 cells dependent on C-MDM2)
# Type: cell-based
# CONDITION DESCRIPTION: human, IB111 (presence of C-MDM2), degradation efficacy
# Method: MDM2 degradation is measured by western blot and immunofluorescence. Cells were seeded in 6-well plates (Sarsted) in complete DMEM medium as to obtain triplicates for each condition (500 000 cells/well). After 24 hours, the compounds were added to the cells. […]
Where a name gives a salt, the structure may show the parent alone.

COc1ccc2[nH]c3c(-c4cc(F)cc5ccccc45)nccc3c2n1.Cl [Compound 20, hydrochloride] :: 40 to 80%

Query :: Provide measured Dmax value, entry: c1ccc2c(-c3nccc4c3[nH]c3ccc(OC5CC5)nc34)cccc2c1 [Compound 24]
Result :: ≥ 80%

Query :: Determine from records and report Dmax for Clc1ccc2[nH]c3c(-c4cccc5ccccc45)nccc3c2n1 [Compound 18]
Result :: 25 to 40%

Query :: Assign Dmax to the following record: COc1ccc2[nH]c3c(-c4cccc5cccc(F)c45)nccc3c2n1 [Compound 23, hydrochloride]
Result :: 25 to 40%
